System: Trichoplusia ni
Study Conditions: in vivo, 24 h
Description: Toxicity against third-instar larval stage of Trichoplusia ni (cabbage looper) assessed as mortality at 0.25% after 24 hr by contact toxicity bioassay
Entries and their mortality
Kindly write the number and append the unit.

C=CCc1cccc(OCCC)c1OCCC(C)C; 7%
C=CCOc1ccccc1OCCC; 10%
C=CCc1cc(OC)ccc1OC; 17%

q: Would you kindly share the measured mortality for CCCCOc1ccc2c(c1)CC(C)O2 (centres undefined) ?
a: 1%

q: Can you check C=CCc1cccc(OC)c1OCCCC next?
a: 1%

q: Can you check C=CCc1cccc(OCCCC)c1O next?
a: 17%

====

Test system: Trichoplusia ni
Test Summary: Feeding deterrent activity against freshly molted third-instar larval stage of Trichoplusia ni (cabbage looper) in compound pretreated cabbage leaves at 50 ug/cm2 after 3 to 5 hr by leaf disk choice bioassay
Assay type: functional
Value Kind: Activity (%)
Unit % implied. Number only.

Below, 6 compounds whose answers are already recorded.
C=CCc1cc(OC)ccc1OCCCC; 23
C=CCc1cc(OC)ccc1OC; 80
C=CCc1cc(OCCC)ccc1OCCCC; 23
C=CCc1cccc(OCC)c1OCCC; 31
C=CCc1cc(OCCC(C)C)ccc1OCCC(C)C; 83
C=CCc1cc(OCC)ccc1OCCC(C)C; 83

q: Would you kindly share the measured Activity for CCCCOc1ccc2c(c1)CC(C)O2 (centres undefined) ?
a: 100

q: Can you check C=CCc1cccc(OCCCC)c1OCCCC next?
a: 6

====

Test system: Trichoplusia ni
Test Summary: Feeding deterrent activity against freshly molted third-instar larval stage of Trichoplusia ni (cabbage looper) in compound pretreated cabbage leaves at 50 ug/cm2 after 3 to 5 hr by leaf disk choice bioassay
Format: functional
Value Kind: Activity (%)
Unit % implied. Number only.

q: Would you kindly share the measured Activity for CCOc1ccc2c(c1)CC(C)O2 (configuration not stated) ?
a: 100

q: Can you check C=CCc1ccc(OCCC(C)C)c(OC)c1 next?
a: 86

q: Can you check C=CCc1cccc(OCCC)c1OCCC next?
a: 31

q: Can you check C=CCc1cc(OCCC(C)C)ccc1OCCCC next?
a: 23

q: Can you check C=CCOc1cccc(OC)c1 next?
a: 66

q: Can you check C=CCc1cccc(OCCCC)c1OC next?
a: 100

q: Can you check C=CCOc1ccc(OC)cc1 next?
a: 62

====

Test system: Trichoplusia ni
Test Summary: Feeding deterrent activity against freshly molted third-instar larval stage of Trichoplusia ni (cabbage looper) in compound pretreated cabbage leaves at 50 ug/cm2 after 3 to 5 hr by leaf disk choice bioassay
Format: functional
// label = true (1) if Activity is not less than 60%, otherwise false (0)

Some solved cases for reference:
C=CCc1cc(OC)ccc1OCCC; true (1)
C=CCc1c(OC)cccc1OCCC; true (1)
C=CCOc1cccc(O)c1; false (0)
C=CCc1cc(OCCC)ccc1OC; true (1)
C=CCOc1ccc(OC)cc1CC=C; false (0)

q: Item C=CCc1cc(OCCC(C)C)ccc1O with Activity of 60% or above?
a: false (0)

q: Can you check C=CCc1cccc(OCCC(C)C)c1OCC next?
a: true (1)

q: Can you check C=CCc1cccc(OCCCC)c1OCCC next?
a: false (0)

q: Can you check C=CCc1ccc(OC)c(OC)c1 next?
a: true (1)

q: Can you check C=CCc1cc(OC)ccc1OCC next?
a: true (1)

q: Can you check C=CCc1cccc(OCC)c1OC next?
a: true (1)

q: Can you check C=CCc1cc(OC)ccc1O next?
a: false (0)

q: Can you check C=CCc1cc(OCCCC)ccc1OCCC next?
a: true (1)

q: Can you check CC(C)CCOc1ccc2c(c1)CC(C)O2 (stereo unspecified) next?
a: true (1)

q: Can you check C=CCc1cccc(OCCCC)c1OCC next?
a: true (1)

q: Can you check C=CCc1cccc(OCC)c1O next?
a: true (1)

q: Can you check C=CCOc1cccc(OCC=C)c1 next?
a: true (1)

q: Can you check C=CCc1cccc(OCCC)c1OCC next?
a: true (1)

q: Can you check C=CCc1cc(OCC)ccc1OCCCC next?
a: false (0)

q: Can you check C=CCc1cccc(OCCC)c1OCCC(C)C next?
a: false (0)

q: Can you check C=CCc1cc(OCCC(C)C)ccc1OCC next?
a: true (1)

q: Can you check COc1ccc2c(c1)CC(C)O2 (stereo unspecified) next?
a: true (1)

q: Can you check COc1cccc(OCCC(C)C)c1 next?
a: true (1)

q: Can you check C=CCOc1ccc(OCCCC)cc1CC=C next?
a: false (0)

q: Can you check C=CCc1cccc(OC)c1OCCC(C)C next?
a: false (0)

meta.source: ChEMBL document CHEMBL3044971
